Values compiled from paper PMC12275099.

- system-tested: UniProt:O15554
- experiment-summary: Excised inside-out patch-clamp on HEK-KCa3.1
- experimental-parameters: 3 µM free Ca2+, absence of DCEBIO; Hill fit; n = 4; read-out: apparent Ki
parameter-measured: Ki (µM)

query_smiles=Cc1nn(C)cc1S(=O)(=O)NC(=O)c1ccc(-n2ccc(OCC(C)(C)C(F)(F)F)n2)nc1N1C[C@@H](C)CC1(C)C observed=8
